Quick reference for IC50 among some molecules
Protein target, amino acids: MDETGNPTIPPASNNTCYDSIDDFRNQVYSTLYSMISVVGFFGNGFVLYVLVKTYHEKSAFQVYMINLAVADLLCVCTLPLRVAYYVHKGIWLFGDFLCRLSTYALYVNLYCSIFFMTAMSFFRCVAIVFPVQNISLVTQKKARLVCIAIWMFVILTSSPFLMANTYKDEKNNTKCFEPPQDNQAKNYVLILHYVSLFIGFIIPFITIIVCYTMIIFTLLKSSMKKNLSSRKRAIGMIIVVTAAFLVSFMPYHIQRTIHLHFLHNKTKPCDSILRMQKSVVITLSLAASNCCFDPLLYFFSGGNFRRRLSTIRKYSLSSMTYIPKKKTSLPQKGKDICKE
# value in nM; strip the unit string

Please review the entries below; each comes with its answer.
* COc1cc(C(=O)NS(=O)(=O)c2ccccc2C)ccc1Cc1cn(C(=O)N2CCOCC2)c2ccc(NC(=O)OC3CCCC3)cc12 | 0.4
* COc1cc(C(=O)NS(=O)(=O)c2ccccc2C)ccc1Cc1cn(C(=O)N(c2ccccc2)c2ccccc2)c2ccc(NC(=O)OC3CCCC3)cc12 | 2

Which value of IC50 has been reported for `COc1cc(C(=O)NS(=O)(=O)c2ccccc2C)ccc1Cc1cn(C(=O)NCCN(C)C)c2ccc(NC(=O)OC3CCCC3)cc12` in the records?
0.5
